// provenance: PubChem BioAssay

target_system: Receptor tyrosine-protein kinase erbB-2 (Homo sapiens) (UniProt P04626)
Sequence (P04626 whole entry, looked up): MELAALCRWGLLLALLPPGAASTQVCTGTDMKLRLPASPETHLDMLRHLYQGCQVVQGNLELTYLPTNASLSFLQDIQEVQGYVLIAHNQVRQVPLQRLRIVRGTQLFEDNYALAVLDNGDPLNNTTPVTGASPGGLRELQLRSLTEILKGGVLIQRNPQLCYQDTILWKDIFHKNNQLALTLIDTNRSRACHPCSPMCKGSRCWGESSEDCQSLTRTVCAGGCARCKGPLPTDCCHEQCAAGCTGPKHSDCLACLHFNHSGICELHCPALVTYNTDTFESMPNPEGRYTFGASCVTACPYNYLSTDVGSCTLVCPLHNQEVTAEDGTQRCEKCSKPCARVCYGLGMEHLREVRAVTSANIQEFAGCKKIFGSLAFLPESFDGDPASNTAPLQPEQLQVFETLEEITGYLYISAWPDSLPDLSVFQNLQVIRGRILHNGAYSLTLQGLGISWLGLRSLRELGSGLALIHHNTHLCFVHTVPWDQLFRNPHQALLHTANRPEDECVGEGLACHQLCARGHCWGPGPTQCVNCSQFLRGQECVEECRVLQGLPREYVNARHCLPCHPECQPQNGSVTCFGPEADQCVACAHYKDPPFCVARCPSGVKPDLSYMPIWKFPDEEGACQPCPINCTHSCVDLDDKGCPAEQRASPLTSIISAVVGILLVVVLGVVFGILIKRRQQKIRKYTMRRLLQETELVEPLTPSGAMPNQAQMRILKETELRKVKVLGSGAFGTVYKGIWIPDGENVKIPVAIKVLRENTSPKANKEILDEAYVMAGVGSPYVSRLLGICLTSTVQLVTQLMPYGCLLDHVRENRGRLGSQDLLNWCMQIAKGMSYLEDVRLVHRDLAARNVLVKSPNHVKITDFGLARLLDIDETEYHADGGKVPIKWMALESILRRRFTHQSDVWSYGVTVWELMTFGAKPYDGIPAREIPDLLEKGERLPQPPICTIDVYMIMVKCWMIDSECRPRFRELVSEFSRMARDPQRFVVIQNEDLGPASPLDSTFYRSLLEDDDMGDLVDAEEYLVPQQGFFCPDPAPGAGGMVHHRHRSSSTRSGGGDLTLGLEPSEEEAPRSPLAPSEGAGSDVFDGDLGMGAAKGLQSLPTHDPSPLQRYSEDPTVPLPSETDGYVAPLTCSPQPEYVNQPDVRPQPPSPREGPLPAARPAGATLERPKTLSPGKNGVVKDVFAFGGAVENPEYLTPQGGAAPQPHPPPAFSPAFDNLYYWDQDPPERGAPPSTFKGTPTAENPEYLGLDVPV
assay_method_text: reducers of endogenous Her2 protein level, primary screen, SKBR3 breast tumor cells, AlphaScreen, ATP viability (AID 461);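 also: lower value means less Her2 protein in the cells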
conditions: 18-24 h, at 10 µM, stronger effect = lower value
Assign Her2 level to each entry below.
Provide only the numeric value, understood in %.

Task: Recall the reported Her2 level of O=C(NCCC1=CCCCC1)N[C@@H](Cc1ccccc1)C(=O)O on Receptor tyrosine-protein kinase erbB-2 (Homo sapiens) (UniProt P04626) and write it down.
Output: 114

Task: Recall the reported Her2 level of CC1(C)Cc2c(sc3ncnc(N)c23)CO1 on Receptor tyrosine-protein kinase erbB-2 (Homo sapiens) (UniProt P04626) and write it down.
Output: 92.5

Task: Recall the reported Her2 level of CCn1nccc1C(=O)Nc1cc(Cl)ccc1Cl on Receptor tyrosine-protein kinase erbB-2 (Homo sapiens) (UniProt P04626) and write it down.
Output: 97.5

Task: Recall the reported Her2 level of CCN(CC)c1ccc(NC(=O)c2[nH]c(C)c(C(C)=O)c2C)c(C)c1 on Receptor tyrosine-protein kinase erbB-2 (Homo sapiens) (UniProt P04626) and write it down.
Output: 91

Task: Recall the reported Her2 level of Cc1cc(-n2c(C)cc(C(=O)CSc3nc4ccccc4c(=O)n3Cc3ccco3)c2C)no1 on Receptor tyrosine-protein kinase erbB-2 (Homo sapiens) (UniProt P04626) and write it down.
Output: 83.5

Task: Recall the reported Her2 level of CC(=O)Nc1c(-c2ccc(F)cc2)nc2ccccn12 on Receptor tyrosine-protein kinase erbB-2 (Homo sapiens) (UniProt P04626) and write it down.
Output: 107

Task: Recall the reported Her2 level of CCOC(=O)c1sc(NC(=O)CSc2nnc3c4ccccc4n(CC)c3n2)nc1C on Receptor tyrosine-protein kinase erbB-2 (Homo sapiens) (UniProt P04626) and write it down.
Output: 104

Task: Recall the reported Her2 level of CCCCCCNC(=O)Cc1c(O)c2ccccc2[nH]c1=O on Receptor tyrosine-protein kinase erbB-2 (Homo sapiens) (UniProt P04626) and write it down.
Output: 90.5

Task: Recall the reported Her2 level of O=C(O)C1CCCCC1C(=O)NCCc1ccccc1 (stereo unspecified) on Receptor tyrosine-protein kinase erbB-2 (Homo sapiens) (UniProt P04626) and write it down.
Output: 104

Task: Recall the reported Her2 level of CCCCN(c1ccccc1)S(=O)(=O)c1ccc2c(c1)CCN2C(=O)CCC(=O)O on Receptor tyrosine-protein kinase erbB-2 (Homo sapiens) (UniProt P04626) and write it down.
Output: 100

Task: Recall the reported Her2 level of Cc1cccn2c(=O)c3cc(C#N)c(=O)n(CCCN4CCOCC4)c3nc12 on Receptor tyrosine-protein kinase erbB-2 (Homo sapiens) (UniProt P04626) and write it down.
Output: 85

====

Assign viability to each entry below.
assay_method_text: SK-BR-3 cell growth inhibitors, pilot screen, 24 h, human (AID 572);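 also: compound exposure lasted between 18 and 24 h rather than exactly 24 h; 100% = carrier-treated control wells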
conditions: SK-BR-3 viability, CellTiter-Glo luminescence, at 10 µM, stronger effect = lower value
Active and inactive are the calls of the source.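 How the source made its calls: active means viability at or below 10% of carrier control in both of two separate runs; inconclusive means viability at or below 10% in only one of the two runs; inactive means the rest.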

Task: Output measured viability for this item: COc1ccc2nc(NC(=O)C3CCCN(S(=O)(=O)c4cccc5nsnc45)C3)sc2c1 (configuration not stated)
Output: 96.5% (inactive)

Task: Output measured viability for this item: CCOC(=O)C1CCCN(C(=O)c2ccc(CS(=O)(=O)Cc3ccccc3C)o2)C1 (configuration not stated)
Output: 94.5% (inactive)

Task: Output measured viability for this item: Cc1cc(=O)oc2ccc(OCC(=O)N3CCC(C)CC3)cc12
Output: 87% (inactive)

Task: Output measured viability for this item: CSc1nnc(-c2ccc(NC(=O)CCc3ccccc3)cc2)n1C
Output: 91.5% (inactive)

Task: Output measured viability for this item: Cn1c(=O)oc2cc(S(=O)(=O)N3CCC(C(=O)Nc4ccc(OC(F)(F)F)cc4)CC3)ccc21
Output: 137% (inactive)

Task: Output measured viability for this item: COc1ccc(/C(O)=C2/C(=O)C(=O)N(CC3CCCO3)C2c2cccc(OC)c2)cc1 (configuration not stated)
Output: 106% (inactive)

Task: Output measured viability for this item: CCNc1nc(OC)nc(Oc2ccc(=O)n(-c3ccccc3)n2)n1
Output: 96% (inactive)

Task: Output measured viability for this item: CC1=C(C(=O)NC2CCCC(C)C2C)C2(CCCCC2)OC1=O (configuration not stated)
Output: 118% (inactive)

Task: Output measured viability for this item: COc1ccc2cc(C(=O)NCc3ccco3)c(=Nc3ccc(C(=O)O)cc3)oc2c1
Output: 68% (inactive)

Task: Output measured viability for this item: OCCn1c(-c2ccc3c(c2)OCO3)csc1=Nc1ccccc1
Output: 97% (inactive)

Task: Output measured viability for this item: CC(=O)C1=C(O)C(=O)N(Cc2ccco2)C1c1ccc2c(c1)OCO2 (configuration not stated)
Output: 108% (inactive)

Task: Output measured viability for this item: COc1cccc(CNc2cccc3cccnc23)c1O
Output: 102% (inactive)

Task: Output measured viability for this item: O=C(Nc1ccccc1-c1ccccc1)NC1CCN(CC(=O)N2CCOCC2)CC1
Output: 98% (inactive)

Task: Output measured viability for this item: O=S(=O)(Nc1cccnc1)c1cc(Cl)ccc1Cl
Output: 77.5% (inactive)

Task: Output measured viability for this item: COc1cc(C(c2sc3nc(C)nn3c2O)N2CC(C)CC(C)C2)cc(OC)c1OC (configuration not stated)
Output: 78% (inactive)

Task: Output measured viability for this item: CN=C1CC(C)(C)CC(=O)/C1=C(/O)CCC(=O)NC
Output: 104% (inactive)

Task: Output measured viability for this item: Cc1cc(C)cc(NC(=O)N2CCC(c3nc4ccccc4o3)CC2)c1
Output: 90.5% (inactive)

Task: Output measured viability for this item: CN(CC(=O)Nc1ccc2c(c1)OCCO2)S(=O)(=O)c1ccc(Br)s1
Output: 90.5% (inactive)

Task: Output measured viability for this item: c1ccc(-n2ncc3c(N4CCCCC4)ncnc32)cc1
Output: 105% (inactive)

Task: Output measured viability for this item: CN(C(=O)c1ccccc1Cl)c1ccccc1
Output: 93.5% (inactive)

Task: Output measured viability for this item: CCOc1ccc(N(CC(=O)NC2CCCC2)S(=O)(=O)c2c(C)[nH]c(=O)[nH]c2=O)cc1
Output: 87% (inactive)

Task: Output measured viability for this item: CC(=O)N(CCN(C(C)=O)c1ccccc1)c1ccccc1
Output: 105% (inactive)

====

assay_method_text: SK-BR-3 cell growth inhibitors, pilot screen, 24 h, human (AID 572);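 also: compound exposure lasted between 18 and 24 h rather than exactly 24 h; 100% = carrier-treated control wells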
conditions: SK-BR-3 viability, CellTiter-Glo luminescence, at 10 µM, stronger effect = lower value
result_type: viability (%)
Provide only the numeric value, understood in %.

Task: Output measured viability for this item: O=S(=O)(c1ccc2ccccc2c1)N(CC(O)CN1CCOCC1)c1ccccc1 (stereo unspecified)
Output: 87

Task: Output measured viability for this item: CCC(=O)Nc1cc(C(=O)NCC2CCCN2CC)c(OC)cc1N(C)C (stereo unspecified)
Output: 101

Task: Output measured viability for this item: COc1ccc(N(C(=O)c2ccco2)S(=O)(=O)c2cc(OC)ccc2OC)cc1
Output: 102

Task: Output measured viability for this item: O=C(Nc1cc(Cl)ccc1Cl)c1noc2c1CCCC2
Output: 87.5

Task: Output measured viability for this item: COc1ccc(S(=O)(=O)CCC(=O)O)cc1
Output: 96.5

Task: Output measured viability for this item: CCOc1ccc(OCc2cccc(C(=O)O)c2)cc1
Output: 108

Task: Output measured viability for this item: NC(=O)c1c(NC(=O)CSc2nnc(-c3ccco3)n2-c2ccccc2)sc2c1CCC2
Output: 76

Task: Output measured viability for this item: Fc1cccc2sc(N3CCOCC3)nc12
Output: 93.5

Task: Output measured viability for this item: O=C(CN(Cc1ccco1)C(=O)CNS(=O)(=O)c1ccc(Cl)cc1)NCc1ccc(F)cc1
Output: 118

Task: Output measured viability for this item: CC(C)(C)NC(=O)NC(=O)COc1ccccc1C#N
Output: 104

Task: Output measured viability for this item: Cn1c(SCC(=O)N2CCOCC2)nnc1-c1cccc(NC(=O)c2ccccc2F)c1
Output: 102

Task: Output measured viability for this item: CN=Cc1cc(-c2ccccc2)sc1O
Output: 82

Task: Output measured viability for this item: COCCNC(=O)CN(C)S(=O)(=O)c1ccc2c(c1)OCCO2
Output: 107

Task: Output measured viability for this item: O=C(c1cccc(Cl)c1)N1CCN(Cc2ccncc2)CC1
Output: 92

Task: Output measured viability for this item: O=C(NCc1cccs1)C1CCN(S(=O)(=O)c2cccs2)CC1
Output: 103

Task: Output measured viability for this item: CCOc1ccc(Cc2nn[nH]n2)cc1
Output: 86.5

Task: Output measured viability for this item: Cc1nc2cccc(C(=O)NC3CCCCC3)c2o1
Output: 100

Task: Output measured viability for this item: CCOC(=O)c1c(NC(=O)CSc2nc3c(c(=O)n(C)c(=O)n3C)n2C(C)C)sc(C)c1C
Output: 106

Task: Output measured viability for this item: CCN1CCN(C(=O)c2ccc3c(=O)n(C4CCCC4)c(=S)[nH]c3c2)CC1
Output: 85.5

Task: Output measured viability for this item: Cc1ccc(-c2nn(C)c(=O)c3ccccc23)cc1S(=O)(=O)N1CCOCC1
Output: 77

Task: Output measured viability for this item: CNC(=O)CN(C#N)c1nc(N(C)C)nc(N(C)C)n1
Output: 104

Task: Output measured viability for this item: CCN(CC)S(=O)(=O)c1ccc2c(c1)nc(SCC(=O)NC1CC1)n2-c1ccccc1OC
Output: 92.5

Task: Output measured viability for this item: CCOC(=O)N1CCC2(CC1)CC(=O)c1c(ccc3oc(C(=O)O)c(C)c13)O2
Output: 118

Task: Output measured viability for this item: Cc1ccc(C2Nc3ccccc3-c3nc4ccccc4n32)o1 (stereo unspecified)
Output: 97

Task: Output measured viability for this item: CCOc1cc(C2c3c(n[nH]c3C)C(=O)N2c2ccc(Br)cc2)ccc1O (stereo unspecified)
Output: 102

Task: Output measured viability for this item: COc1ccc(-c2nn3c(-c4ccncc4)nnc3s2)cc1OC
Output: 105

Task: Output measured viability for this item: CCn1c(=O)cc(SCC(=O)NCCN2CCN(Cc3ccccc3)CC2)c2ccccc21
Output: 89

Task: Output measured viability for this item: COc1ccc(C(C(C(=O)c2ccco2)N2CCOCC2)N2CCOCC2)cc1 (stereo unspecified)
Output: 97

Task: Output measured viability for this item: O=C1N2c3ccccc3CCc3cccc(c32)C1(O)C(F)(F)F (stereo unspecified)
Output: 94.5

Task: Output measured viability for this item: C=CCOc1ccc(/C=N/n2cncn2)cc1OC
Output: 85

Task: Output measured viability for this item: CCOC(=O)c1nnc(-c2ccccc2)o1
Output: 101

Task: Output measured viability for this item: O=C(CC1CCS(=O)(=O)C1)Nc1ccc[nH]c1=O (stereo unspecified)
Output: 102

Task: Output measured viability for this item: CCCCN(CC)CCCNC(=O)CS(=O)(=O)Cc1nc(-c2cccc(OC)c2)oc1C
Output: 92

Task: Output measured viability for this item: COc1ccc(C2=NO[C@@H]3C(=O)N(c4cccc(C)c4C)C(=O)[C@H]23)cc1OC
Output: 104

Task: Output measured viability for this item: CCOC(=O)c1ccc(NS(=O)(=O)c2cccc3nsnc23)cc1
Output: 90.5

Task: Output measured viability for this item: COc1ccc(C(=O)Cn2c(N3CCCCC3)nc3c2c(=O)n(C)c(=O)n3C)cc1OC
Output: 94

Task: Output measured viability for this item: O=C(Nc1ccc(N2C(=O)C3C4C=CC(C4)C3C2=O)cc1)Nc1cccnc1 (stereo unspecified)
Output: 108

Task: Output measured viability for this item: CCCC(NC(=O)c1ccccc1)c1nc2ccccc2n1Cc1ccc(C(=O)OC)o1 (stereo unspecified)
Output: 98

Task: Output measured viability for this item: O=C(Cn1cnc2ccccc2c1=O)NCCC(=O)N1CCN(Cc2ccccc2)CC1
Output: 89

Task: Output measured viability for this item: COc1ccc(C(=O)c2ccccc2)c(O)c1
Output: 86.5

Task: Output measured viability for this item: O=C(CNC(=O)c1ccccc1C(=O)O)c1ccccc1
Output: 128

Task: Output measured viability for this item: O=C(CN1C(=O)CCSc2ccccc21)Nc1ccc(F)cc1
Output: 94

Task: Output measured viability for this item: CCOC(=O)C(NC(=O)C1CCCN1C(=O)OCc1ccccc1)C(=O)OCC (stereo unspecified)
Output: 104

Task: Output measured viability for this item: CCOc1cccc(OCCOCCN2CCCC2)c1
Output: 107

Task: Output measured viability for this item: C=CCOc1nc2c(c(=O)n(C)c(=O)n2C)n1C
Output: 96.5

Task: Output measured viability for this item: CCn1c(SCC(=O)N2CCOCC2)nc2c(c1=O)SC(C)C2 (stereo unspecified)
Output: 95
